Sourced from ChEMBL document CHEMBL6121062

Entries and their IC50 values follow.
test system: FaDu; assay: Antiproliferative activity against human FaDu cells assessed as inhibition of cell viability incubated for 72 hrs by ATPlite assay; type: functional, cell-based
READOUT: IC50

>  <COMPOUND>
O=C(NCc1ccc2cc(CNCC3CCC3)[nH]c2c1)c1cc(=O)n2ccccc2n1

>  <ASSAYED SYSTEM>
FaDu

>  <MEASURED>
2.21 µM

$$$$
>  <COMPOUND>
C[C@@H](n1cc(-c2cncc(N(C)C)c2)nn1)n1ccc(N2CCC[C@@H](NCC3CC3)C2)cc1=O

>  <ASSAYED SYSTEM>
FaDu

>  <MEASURED>
0.05 µM

$$$$

---

target: METTL3/METTL14 (Homo sapiens, UniProt Q86U44); test: Inhibition of METTL3/METTL14-mediated m6A mRNA expression in human A549 cells incubated for 24 hrs by LC-MS/MS analysis; assay type: cell-based
Sequence (Q86U44 whole entry): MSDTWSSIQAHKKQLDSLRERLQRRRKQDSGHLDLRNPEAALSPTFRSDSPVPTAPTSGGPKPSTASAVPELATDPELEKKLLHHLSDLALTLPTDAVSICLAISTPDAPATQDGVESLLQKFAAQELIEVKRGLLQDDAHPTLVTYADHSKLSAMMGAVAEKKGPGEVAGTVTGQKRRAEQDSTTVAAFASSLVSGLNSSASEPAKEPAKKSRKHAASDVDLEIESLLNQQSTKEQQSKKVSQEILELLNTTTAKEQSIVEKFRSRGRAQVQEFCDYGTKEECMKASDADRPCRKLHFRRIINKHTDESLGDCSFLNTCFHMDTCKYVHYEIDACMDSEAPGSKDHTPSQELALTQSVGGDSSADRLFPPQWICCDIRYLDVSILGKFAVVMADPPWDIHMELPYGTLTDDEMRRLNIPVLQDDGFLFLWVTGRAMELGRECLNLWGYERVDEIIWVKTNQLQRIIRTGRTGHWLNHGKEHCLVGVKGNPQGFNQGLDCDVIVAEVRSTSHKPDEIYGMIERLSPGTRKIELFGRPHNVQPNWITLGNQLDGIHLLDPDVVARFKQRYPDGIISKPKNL
Sequence (Q9HCE5 whole entry, further chain): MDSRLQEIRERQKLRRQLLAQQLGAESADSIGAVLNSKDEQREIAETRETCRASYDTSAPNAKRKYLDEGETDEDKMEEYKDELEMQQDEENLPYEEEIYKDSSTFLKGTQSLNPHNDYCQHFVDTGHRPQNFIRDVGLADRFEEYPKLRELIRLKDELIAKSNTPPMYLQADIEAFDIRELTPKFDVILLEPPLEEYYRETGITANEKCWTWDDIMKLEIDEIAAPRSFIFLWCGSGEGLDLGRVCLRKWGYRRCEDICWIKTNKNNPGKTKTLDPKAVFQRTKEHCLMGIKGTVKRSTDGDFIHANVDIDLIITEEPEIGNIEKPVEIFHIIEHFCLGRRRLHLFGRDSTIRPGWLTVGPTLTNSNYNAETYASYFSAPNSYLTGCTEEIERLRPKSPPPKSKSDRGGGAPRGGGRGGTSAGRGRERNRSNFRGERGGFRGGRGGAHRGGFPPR

>  <COMPOUND>
C[C@@H](n1cc(-c2cncc(N(C)C)c2)nn1)n1ccc(N2CCC[C@@H](NCC3CC3)C2)cc1=O

>  <ASSAYED SYSTEM>
METTL3/METTL14 (Homo sapiens, UniProt Q86U44)

>  <RESULT UNITS>
nM

>  <IC50>
7

$$$$
>  <COMPOUND>
O=C(NCc1ccc2cc(CNCC3CCC3)[nH]c2c1)c1cc(=O)n2ccccc2n1

>  <ASSAYED SYSTEM>
METTL3/METTL14 (Homo sapiens, UniProt Q86U44)

>  <RESULT UNITS>
nM

>  <IC50>
264

$$$$

---

target: METTL3/METTL14 (Homo sapiens, UniProt Q86U44); test: Displacement of [3H]-SAM from METTL3/METTL14 (unknown origin) using 5'biotinylated-UACACUCGAUCUGGACUAAAGGUGCUC-3' RNA as substrate preincubated for 10 mins followed by substrate/[3H]-SAM addition measured after 90 mins by SPA; type: protein-complex assay
pIC50: −log10 of the molar value.
Label N if pIC50 falls below 8; label Y in every other case.

>  <COMPOUND>
COc1cc(-c2cn(Cc3ccc(N4CCC[C@@H](NCC(C)C)C4)nn3)nn2)c2cn[nH]c2c1

>  <LABEL>
Y

$$$$
>  <COMPOUND>
COc1cncc(-c2cn(Cc3ccc(N4CCCC(NCC5CCC5)C4=O)nn3)nn2)c1 (stereo not drawn)

>  <LABEL>
N

$$$$
>  <COMPOUND>
O=C(NCc1ccc2cc(CNCC3CCC3)[nH]c2c1)c1cc(=O)n2ccccc2n1

>  <LABEL>
Y

$$$$
>  <COMPOUND>
COc1cncc(-n2cc(C(C)n3ccc(N4CCC[C@@H](NCC5CCC5)C4)cc3=O)cn2)c1 (stereo partly drawn)

>  <LABEL>
Y

$$$$
>  <COMPOUND>
CC(n1cc(-c2cccnc2)nn1)n1ccc(N2CCC[C@@H](NCC3CCC3)C2)cc1=O (stereo partly drawn)

>  <LABEL>
N

$$$$
>  <COMPOUND>
COc1cncc(-c2ncn(C(C)n3ccc(N4CCC[C@@H](NCC5CCC5)C4)cc3=O)n2)c1 (stereo partly drawn)

>  <LABEL>
Y

$$$$
>  <COMPOUND>
COc1cc(-c2cn(Cc3ccc(N4CCC[C@@H](NC5CCC5)C4)nn3)nn2)c2cn[nH]c2c1

>  <LABEL>
Y

$$$$
>  <COMPOUND>
COc1cncc(-c2cn(C(C)c3ccc(N4CCC[C@@H](NCC5CCC5)C4)nn3)nn2)c1 (stereo partly drawn)

>  <LABEL>
Y

$$$$

---

target: METTL3/METTL14 (Homo sapiens); assay: Inhibition of METTL3/METTL14-mediated m6A mRNA expression in human Kasumi 1 cells incubated for 24 hrs by LC-MS/MS analysis; format: cell-based
Entries and their IC50 values follow.
READOUT: IC50

>  <COMPOUND>
C[C@@H](n1cc(-c2cncc(N(C)C)c2)nn1)n1ccc(N2CCC[C@@H](NCC3CC3)C2)cc1=O

>  <ASSAYED SYSTEM>
METTL3/METTL14 (Homo sapiens)

>  <MEASURED>
5 nM

$$$$
>  <COMPOUND>
O=C(NCc1ccc2cc(CNCC3CCC3)[nH]c2c1)c1cc(=O)n2ccccc2n1

>  <ASSAYED SYSTEM>
METTL3/METTL14 (Homo sapiens)

>  <MEASURED>
138 nM

$$$$

---

test: Unbound clearance in Sprague-Dawley rat at 1 mg/kg/day, iv measured for 24 hrs by LC-MS/MS analysis; assay type: ADME, organism-based; settings: in vivo
READOUT: CL free

>  <MOLECULE>
COc1cncc(-c2cn(Cn3ccc(N4CCC[C@@H](NCC5CCC5)C4)cc3=O)nn2)c1

>  <MEASURED>
854 mL/min/kg

$$$$
>  <MOLECULE>
CC(n1cc(-c2cncc(-n3cccn3)c2)nn1)n1ccc(N2CCC[C@@H](NCC3CCC3)C2)cc1=O (some centres undefined)

>  <MEASURED>
529 mL/min/kg

$$$$
>  <MOLECULE>
COc1cncc(-c2cn(Cc3ccc(N4CCC[C@@H](NCC5CCC5)C4)nn3)nn2)c1

>  <MEASURED>
596 mL/min/kg

$$$$
>  <MOLECULE>
COc1cncc(-c2cn(C(C)c3ccc(N4CCC[C@@H](NCC5CCC5)C4)cn3)nn2)c1 (some centres undefined)

>  <MEASURED>
263 mL/min/kg

$$$$

---

test: Lipophilicity, logD of compound in 1-octanol/PBS at pH 7.4 incubated for 24 hrs by HPLC analysis; type: physicochemical
Entries and their logD at 24 h values follow.

>  <COMPOUND>
CC(n1cc(-c2cccn3cncc23)nn1)n1ccc(N2CCC[C@@H](NCC3CCC3)C2)cc1=O (some centres undefined)

>  <logD at 24 h>
1.53

$$$$
>  <COMPOUND>
CC(n1cc(-c2cncc(N3CCCC3)c2)nn1)n1ccc(N2CCC[C@@H](NCC3CCC3)C2)cc1=O (some centres undefined)

>  <logD at 24 h>
2.49

$$$$
>  <COMPOUND>
CCOc1cncc(-c2cn(C(C)n3ccc(N4CCC[C@@H](NCC5CCC5)C4)cc3=O)nn2)c1 (some centres undefined)

>  <logD at 24 h>
2.07

$$$$
>  <COMPOUND>
COc1ccc(-c2cn(C(C)n3ccc(N4CCC[C@@H](NCC5CCC5)C4)cc3=O)nn2)cn1 (some centres undefined)

>  <logD at 24 h>
1.69

$$$$
>  <COMPOUND>
COc1cncc(-c2cn(C(C)n3ccc(N4CCC[C@@H](NCC5CCC5)C4)cc3=O)cn2)c1 (some centres undefined)

>  <logD at 24 h>
1.52

$$$$
>  <COMPOUND>
COc1cc(-c2cn(Cc3ccc(N4CCC(NCC5CCC5)CC4)nn3)nn2)c2cn[nH]c2c1

>  <logD at 24 h>
1.64

$$$$
>  <COMPOUND>
COc1cc(-c2cn(Cc3ccc(N4CCC[C@@H](NCC(C)C)C4)nn3)nn2)c2cn[nH]c2c1

>  <logD at 24 h>
1.92

$$$$
>  <COMPOUND>
COc1cc(-c2cn(Cc3ccc(N4CCC[C@@H](NCC5CC5)C4)nn3)nn2)c2cn[nH]c2c1

>  <logD at 24 h>
1.63

$$$$
>  <COMPOUND>
COc1cncc(-c2cc(C(C)n3ccc(N4CCC[C@@H](NCC5CCC5)C4)cc3=O)on2)c1 (some centres undefined)

>  <logD at 24 h>
1.63

$$$$

---

target: METTL3/METTL14 (Homo sapiens, UniProt Q86U44); assay: Inhibition of METTL3/METTL14-mediated m6A mRNA expression in human FaDu cells incubated for 24 hrs by LC-MS/MS analysis; format: cell-based

>  <COMPOUND>
O=C(NCc1ccc2cc(CNCC3CCC3)[nH]c2c1)c1cc(=O)n2ccccc2n1

>  <IC50>
331 nM

$$$$
>  <COMPOUND>
C[C@@H](n1cc(-c2cncc(N(C)C)c2)nn1)n1ccc(N2CCC[C@@H](NCC3CC3)C2)cc1=O

>  <IC50>
6 nM

$$$$

---

tested on: MV4-11; assay: Antiproliferative activity against human MV4-11 cells assessed as inhibition of cell viability incubated for 72 hrs by ATPlite assay; assay type: functional, cell-based; details: MV4-11, 72 h
Entries and their IC50 values follow.
READOUT: IC50 (µM)

>  <COMPOUND>
O=C(NCc1ccc2cc(CNCC3CCC3)[nH]c2c1)c1cc(=O)n2ccccc2n1

>  <READOUT>
IC50

>  <MEASURED>
7.63

$$$$
>  <COMPOUND>
C[C@@H](n1cc(-c2cncc(N(C)C)c2)nn1)n1ccc(N2CCC[C@@H](NCC3CC3)C2)cc1=O

>  <READOUT>
IC50

>  <MEASURED>
0.234

$$$$
